# pIC50 listing for each entry below
- runDescription: Antiinflammatory activity in human HDF cells assessed as inhibition of IL-17A/TNF-alpha-stimulated IL-6 release preincubated for 5 hrs followed by IL-17A/TNF-alpha stimulation and measured after 18 to 20 hrs by homogenous time-resolved FRET based assay
- Format: functional, cell-based
pIC50: −log10 of the molar value.
readoutType: pIC50

{"chemicalSmiles": "[2H]C([2H])([2H])O[C@@H]1CCN(C(=O)[C@@H]2CCC(F)(F)CO2)[C@@H](c2cnn3cc([C@@H](NC(=O)c4ccnn4C)C4CCC(F)(F)CC4)nc3n2)C1", "readoutType": "pIC50", "recordedMeasurement": 7.40}
{"chemicalSmiles": "CO[C@@H]1CCN(C(=O)[C@@H]2CCC(F)(F)CO2)[C@@H](c2cnn3cc([C@@H](NC(=O)c4ccnn4C)C4CCC(F)(F)CC4)nc3n2)C1", "readoutType": "pIC50", "recordedMeasurement": 7.40}
{"chemicalSmiles": "[2H]C([2H])([2H])O[C@@H]1CCN(C(=O)[C@@H]2CCC(F)(F)CO2)[C@H](c2cnn3cc([C@@H](NC(=O)c4ccnn4C)C4CCC(F)(F)CC4)nc3n2)C1", "readoutType": "pIC50", "recordedMeasurement": 8.40}
{"chemicalSmiles": "CO[C@@H]1CCN(C(=O)[C@@H]2CCC(F)(F)CO2)[C@H](c2cnn3cc([C@@H](NC(=O)c4ccnn4C)C4CCC(F)(F)CC4)nc3n2)C1", "readoutType": "pIC50", "recordedMeasurement": 8.50}
